- ASSAY OVERVIEW: M. tuberculosis growth inhibition, HTS (AID 449762);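 further: bacterial growth assessed after seven days of incubation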
- CONDITION LABEL: M. tuberculosis H37Rv growth inhibition, 7H9 media; at 25 µM; stronger effect = higher value
The campaign covered roughly 330,000 compounds. About 1,900 (0.58%) were called active. Inconclusive results (about 4%) are left out. A selection follows. Measured potencies and affinities stand elsewhere.
VALUE TYPE: inhibition (%)
Please respond with the number in % and leave the unit unwritten.

Query string: // Input: Cc1ccc(CNS(=O)(=O)c2ccc(-n3cnnn3)c(C)c2)cc1 . Output its inhibition only.
Result string: 5.67

Query string: // Input: O=C1CC2(CCCCC2)Oc2ccc(F)cc21 . Output its inhibition only.
Result string: -0.1

Query string: // Input: O=C(CCCCCCC(=O)c1ccccc1)c1ccccc1 . Output its inhibition only.
Result string: -5.92

Query string: // Input: CCN(C[C@H]1N[C@@](CC)(C(=O)OC)[C@H]2C(=O)N(Cc3ccccc3)C(=O)[C@@H]12)C(=O)Nc1ccc(C(F)(F)F)cc1 . Output its inhibition only.
Result string: -6.29

Query string: // Input: O=C(Cc1c(F)cccc1Cl)Nc1ccc(S(=O)(=O)N2CCOCC2)cc1 . Output its inhibition only.
Result string: -7.05

Query string: // Input: CCOC(=O)CCCNC(=O)COC(=O)c1ccc(O)cc1 . Output its inhibition only.
Result string: -6.12

Query string: // Input: CCN(C[C@H]1N[C@@](Cc2ccccc2)(C(=O)OC)[C@H]2C(=O)N(Cc3ccccc3)C(=O)[C@@H]12)C(=O)Nc1ccc(F)cc1 . Output its inhibition only.
Result string: 3.17

Query string: // Input: O=C(CCCCCCCC(=O)c1ccccc1)c1ccccc1 . Output its inhibition only.
Result string: 4.08

Query string: // Input: CC(C)c1ccc(OCC(O)CNC(C)c2ccccc2)cc1 (stereo not given) . Output its inhibition only.
Result string: 15.1

Query string: // Input: C/C(CC(=O)NC(C)(C)C)=N\NC(=O)COc1ccc(C)cc1Br . Output its inhibition only.
Result string: 2.95

Query string: // Input: Cc1ccc(NC(=O)Cc2ccc(Cl)cc2)nc1 . Output its inhibition only.
Result string: 11.2

Query string: // Input: CC1(C)C([N+](=O)[O-])C(c2ccc(Cl)cc2)NC(c2ccc(Cl)cc2)C1[N+](=O)[O-] (stereo not given) . Output its inhibition only.
Result string: 61.2

Query string: // Input: COc1ccc(COC(=O)Nc2cc3c(C(F)(F)F)nn(C)c3s2)cc1 . Output its inhibition only.
Result string: -0.32

Query string: // Input: COc1ccc(OC)c(NC(=O)Cn2cc(C#N)c3ccccc32)c1 . Output its inhibition only.
Result string: -1.64

Query string: // Input: CSc1nccc(N/N=C/c2ccccc2)n1 . Output its inhibition only.
Result string: 0.53

Query string: // Input: ClC1(CNc2ccccc2)CCN(Cc2ccccc2)CC1 . Output its inhibition only.
Result string: -3.08

Query string: // Input: Cn1nc(C(F)(F)F)c2cc(NC(=O)OCc3ccc(F)cc3)sc21 . Output its inhibition only.
Result string: 10.2

Query string: // Input: C/C(=N\O)c1noc(C)c1C(=O)Nc1nccs1 . Output its inhibition only.
Result string: -2.68

Query string: // Input: CCOc1ccc(CC2S/C(=N/c3ccccn3)NC2=O)cc1 (stereo not given) . Output its inhibition only.
Result string: -1.03

Query string: // Input: O=[N+]([O-])c1ccc(C2CN=C(Nc3ccccc3)S2)cc1 (stereo not given) . Output its inhibition only.
Result string: 0.07

Query string: // Input: COC(=O)c1cc(C#N)c(N2CCN(C)CC2)nc1C . Output its inhibition only.
Result string: -0.25

Query string: // Input: CCOC(=O)N1CCN(C(=O)CSc2nnc(-c3ccccc3OC)o2)CC1 . Output its inhibition only.
Result string: 41.9

Query string: // Input: Cc1cc(C)c(NC(=O)Cn2ncc3ccccc32)c(C)c1 . Output its inhibition only.
Result string: -0.59

Query string: // Input: OC1(c2ccccc2)CCN(Cc2ccccc2)CC1 . Output its inhibition only.
Result string: -0.23

Query string: // Input: Cc1ccc(C(=O)NNS(=O)(=O)c2ccccc2[N+](=O)[O-])cc1 . Output its inhibition only.
Result string: 4.03

Query string: // Input: Clc1ccc(OCCOCCN2CCCCC2)c(Br)c1 . Output its inhibition only.
Result string: -2.44

Query string: // Input: COc1ccc(C(=O)n2c(N)nc3ccccc32)cc1OC . Output its inhibition only.
Result string: 44.1

Query string: // Input: CN(C)C(=O)c1ccc(Cl)cc1[N+](=O)[O-] . Output its inhibition only.
Result string: -3.01

Query string: // Input: NC(=O)CC(NC(=O)Cc1ccc(Br)cc1)c1ccc(NCc2ccccn2)c([N+](=O)[O-])c1 (stereo not given) . Output its inhibition only.
Result string: 3.35

Query string: // Input: N#Cc1c(-c2ccc(Br)cc2)nc2n(c1=O)CCCS2 . Output its inhibition only.
Result string: -5.36

Query string: // Input: CCC(C)(C)NC(=O)Cn1c(-c2ccc(C)cc2)noc1=O . Output its inhibition only.
Result string: -4.07

Query string: // Input: CSc1ccccc1OCc1cc(C(=O)NC(C)CCn2cccn2)no1 (stereo not given) . Output its inhibition only.
Result string: -15.6

Query string: // Input: COCCN(C(=O)COC(=O)/C=C/c1ccc(C)o1)c1c(N)n(Cc2ccccc2)c(=O)[nH]c1=O . Output its inhibition only.
Result string: -11.7

Query string: // Input: CC1CN=C(Nc2ccccc2)S1 (stereo not given) . Output its inhibition only.
Result string: 1.32

Query string: // Input: O=C(Nc1ccccc1)C1CC(=O)n2ncnc2N1 (stereo not given) . Output its inhibition only.
Result string: -4.59

Query string: // Input: O/N=C/c1ccnc(SCc2ccccc2)n1 . Output its inhibition only.
Result string: 16.4

Query string: // Input: Cn1c(=O)c2c(nc3n2CC(O)CN3c2ccc(O)cc2)n(C)c1=O (stereo not given) . Output its inhibition only.
Result string: -2.83

Query string: // Input: CCCNC(=O)c1onc(CSc2ccccc2)c1C(=O)NCCC . Output its inhibition only.
Result string: 3.78

Query string: // Input: CC(=O)Nc1ccc(C(=O)NNC(=O)C2CC2)cc1 . Output its inhibition only.
Result string: -9.13

Query string: // Input: Cc1ccc(C(=O)Cn2c(-c3ccccc3)noc2=O)cc1 . Output its inhibition only.
Result string: 2.22

Query string: // Input: CS(=O)(=O)c1ccc2nc(NC(=O)c3cccc(NS(=O)(=O)c4ccc(F)c(F)c4)c3)sc2c1 . Output its inhibition only.
Result string: 60.6

Query string: // Input: CS(=O)(=O)c1ccc2nc(NC(=O)c3ccc(NS(=O)(=O)c4ccc(F)c(F)c4)cc3)sc2c1 . Output its inhibition only.
Result string: -0.5

Query string: // Input: N#Cc1cccc(NC(=O)CCc2ccc(S(=O)(=O)N3CCOCC3)cc2)c1 . Output its inhibition only.
Result string: 2.35

Query string: // Input: C/C(=N\NC(=O)COc1ccc(C)cc1[N+](=O)[O-])c1cccs1 . Output its inhibition only.
Result string: 2.03

Query string: // Input: Cc1ccc(S(=O)(=O)NNC(=O)c2ccc(O)cc2)cc1 . Output its inhibition only.
Result string: 9.92
